Cited source: patent US20220170062A1

target: Vaccinia virus capping enzyme (VCE) (Vaccinia virus, UniProt P04298); construct: purchased CellScript ScriptCap m^7G Capping System (catalogue number not given); assay type: biochemical; design: key: A: capping was observed; B: either capping was not observed, or the capping efficiency was low
ENDPOINT_NAME: Capping efficiency

COMPOUND	Capping efficiency
Nc1nc2c(ncn2[C@H]2C[C@H](O)[C@@H](COP(=O)(O)OP(=O)(O)OP(=O)(O)O)O2)c(=O)[nH]1 [compound 11, 2′-Deoxyguanosine-5′-triphosphate]	A
COc1nc(N)nc2c1ncn2[C@@H]1O[C@H](COP(=O)(O)OP(=O)(O)OP(=O)(O)O)[C@@H](O)[C@H]1O [compound 3, O6-Methylguanosine-5′-triphosphate]	A
CO[C@H]1[C@@H](O)[C@H](n2cnc3c(=O)[nH]c(N)nc32)O[C@@H]1COP(=O)(O)OP(=O)(O)OP(=O)(O)O [compound 16, 3′-O-Methylguanosine-5′-Triphosphate]	A
Nc1nc2c(ncn2[C@H]2C[C@H](N)[C@@H](COP(=O)(O)OP(=O)(O)OP(=O)(O)O)O2)c(=O)[nH]1	A
C[n+]1cn([C@@H]2O[C@H](COP(=O)(O)OP(=O)(O)OP(=O)(O)O)[C@@H](O)[C@H]2O)c2nc(N)[nH]c(=O)c21 [compound 1, N7-Methylguanosine-5′-triphosphate]	A

Ask: Return reported Capping efficiency; argument: Nc1ncnc2c1ncn2[C@@H]1O[C@H](COP(=O)(O)OP(=O)(O)OP(=O)(O)O)[C@@H](O)[C@H]1O [compound 8, Adenosine-5′-triphosphate]
Reply: B

Ask: Return reported Capping efficiency; argument: C#CCO[C@H]1[C@@H](O)[C@H](n2cnc3c(=O)[nH]c(N)nc32)O[C@@H]1COP(=O)(O)OP(=O)(O)OP(=O)(O)O
Reply: A

Ask: Return reported Capping efficiency; argument: Nc1nc2c(ncn2[C@@H]2O[C@H](COP(=O)(O)OP(=O)(O)OP(=O)(O)O)[C@@H](O)[C@@H]2O)c(=O)[nH]1 [compound 13, Araguanosine-5′-triphosphate]
Reply: A

Ask: Return reported Capping efficiency; argument: O=P(O)(O)OP(=O)(O)OP(=O)(O)OC[C@H]1O[C@@H](n2cnc3c(O)ncnc32)[C@H](O)[C@@H]1O [compound 9, Inosine-5′-triphosphate]
Reply: A

Ask: Return reported Capping efficiency; argument: O=c1[nH]c(=O)c2ncn([C@@H]3O[C@H](COP(=O)(O)OP(=O)(O)OP(=O)(O)O)[C@@H](O)[C@H]3O)c2[nH]1 [compound 10, Xanthosine-5′-Triphosphate]
Reply: B

Ask: Return reported Capping efficiency; argument: Cn1c(N)nc2c(ncn2[C@@H]2O[C@H](COP(=O)(O)OP(=O)(O)OP(=O)(O)O)[C@@H](O)[C@H]2O)c1=O [compound 2, N1-Methylguanosine-5′-triphosphate]
Reply: A

---

biological target: Vaccinia virus capping enzyme (VCE) (Vaccinia virus, UniProt P04298); construct: purchased CellScript ScriptCap m^7G Capping System (catalogue number not given); type: biochemical; parameters: key: A: capping was observed; B: either capping was not observed, or the capping efficiency was low
ENDPOINT_NAME: Capping efficiency

Worked examples, 8 compounds total:
COMPOUND	Capping efficiency
Nc1nc2c(ncn2[C@@H]2O[C@H](COP(=O)(O)OP(=O)(O)OP(=O)(O)O)[C@@H](O)[C@H]2F)c(=O)[nH]1	A
[N-]=[N+]=N[C@@H]1[C@H](O)[C@@H](COP(=O)(O)OP(=O)(O)OP(=O)(O)O)O[C@H]1n1cnc2c(=O)[nH]c(N)nc21	A
Nc1nc2c(ncn2[C@H]2CC[C@@H](COP(=O)(O)OP(=O)(O)OP(=O)(O)O)O2)c(=O)[nH]1 [compound 12, 2′,3′-Dideoxyguanosine-5′-triphosphate]	B
Nc1[nH]c(=O)nc2c1ncn2[C@@H]1O[C@H](COP(=O)(O)OP(=O)(O)OP(=O)(O)O)[C@@H](O)[C@H]1O [compound 7, Isoguanosine-5′-triphosphate]	B
Nc1nc2c(ncn2[C@@H]2O[C@H](COP(=O)(O)OP(=O)(O)OP(=O)(O)O)[C@@H](O)[C@H]2N)c(=O)[nH]1	A
Nc1nc2c(C3OC(COP(=O)(O)OP(=O)(O)OP(=O)(O)O)C(O)C3O)scc2c(=O)[nH]1 (stereo not shown) [compound 5, Thienoguanosine-5′-Triphosphate]	B
Nc1nc2c(ccn2[C@@H]2O[C@H](COP(=O)(O)OP(=O)(O)OP(=O)(O)O)[C@@H](O)[C@H]2O)c(=O)[nH]1 [compound 4, 7-Deazaguanosine-5′-Triphosphate]	B
CO[C@@H]1[C@H](O)[C@@H](COP(=O)(O)OP(=O)(O)OP(=O)(O)O)O[C@H]1n1cnc2c(=O)[nH]c(N)nc21 [compound 15, 2′-O-Methylguanosine-5′-Triphosphate]	A

Ask: Return reported Capping efficiency; argument: Nc1nc2c(ncn2[C@@H]2O[C@H](COP(O)(=S)OP(=O)(O)OP(=O)(O)O)[C@@H](O)[C@H]2O)c(=O)[nH]1 (stereo partly shown) [compound 24, Guanosine-5-O-(1-Thiotriphosphate)]
Reply: A

Ask: Return reported Capping efficiency; argument: [N-]=[N+]=N[C@H]1C[C@H](n2cnc3c(=O)[nH]c(N)nc32)O[C@@H]1COP(=O)(O)OP(=O)(O)OP(=O)(O)O
Reply: A
